Reference source for all entries: patent US10919885B2

target: human SCD1 (Homo sapiens (Human)); test: Yeast growth assay, strain expressing human SCD1 as the sole desaturase (reduced growth as surrogate for SCD inhibition); settings: yeast with OLE1 deleted expressing human SCD1 from a plasmid; growth read as OD600 after 40 h at 30° C.; top drug concentration 33.3 μM
Sequence (O00767 whole entry): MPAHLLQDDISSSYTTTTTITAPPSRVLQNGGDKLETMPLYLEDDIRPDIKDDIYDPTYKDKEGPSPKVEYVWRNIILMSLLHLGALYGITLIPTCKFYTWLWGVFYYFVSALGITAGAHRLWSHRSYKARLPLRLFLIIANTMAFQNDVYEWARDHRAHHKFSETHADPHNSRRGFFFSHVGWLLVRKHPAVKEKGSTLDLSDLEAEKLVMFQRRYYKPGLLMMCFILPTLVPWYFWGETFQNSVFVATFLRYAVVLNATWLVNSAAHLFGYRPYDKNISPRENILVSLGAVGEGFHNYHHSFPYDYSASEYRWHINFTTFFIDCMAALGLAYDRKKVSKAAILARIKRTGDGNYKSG
pIC50: −log10 of the molar value.
The label depends only on pIC50: 1 if it is at least 6, -1 if it is smaller.

Query :: Hi team, for COc1ccncc1Cn1cc(NC(=O)c2cc(-c3ccccc3F)on2)cn1 [Compound 173] , is the recorded pIC50 at or above 6?
Result :: -1

Query :: Hi team, for O=C(c1cc(-c2ccco2)on1)N1CC(Nc2ccccc2)C1 [Compound 210] , is the recorded pIC50 at or above 6?
Result :: -1

Query :: Hi team, for O=C(c1cc(-c2ccccn2)on1)N1CCC(c2cccc(F)c2)C1 (centres unmarked) [Compound 352] , is the recorded pIC50 at or above 6?
Result :: -1

Query :: Hi team, for O=C(Nc1cnn(CC2CCCCC2)c1)c1cc(-c2ccco2)on1 [Compound 26] , is the recorded pIC50 at or above 6?
Result :: -1

Query :: Hi team, for O=C(NC1CCN(c2ccccc2)C1)c1cc(-c2ccco2)on1 (centres unmarked) [Compound 343] , is the recorded pIC50 at or above 6?
Result :: -1

Query :: Hi team, for Cc1nn(Cc2ccccc2)c(C)c1NC(=O)c1cc(-c2ccc3c(c2)OCO3)on1 [Compound 5] , is the recorded pIC50 at or above 6?
Result :: -1

Query :: Hi team, for Cc1nn(Cc2ccc(Cl)c(Cl)c2)c(C)c1NC(=O)c1cc(-c2ccco2)on1 [Compound 3] , is the recorded pIC50 at or above 6?
Result :: -1

Query :: Hi team, for CN(C)CCC(c1ccccc1)n1cc(NC(=O)c2cc(-c3ccccc3)on2)cn1 (centres unmarked) [Compound 65] , is the recorded pIC50 at or above 6?
Result :: -1

Query :: Hi team, for CNC(=O)c1ccc(-c2cc(C(=O)N3CCC(c4ccccc4)CC3)no2)cc1 [Compound 304] , is the recorded pIC50 at or above 6?
Result :: 1

Query :: Hi team, for O=C(c1cc(-c2ccc(Cl)cn2)on1)N1CC(c2ccccc2)C1 [Compound 241] , is the recorded pIC50 at or above 6?
Result :: -1

Query :: Hi team, for COc1ccc(-c2cc(C(=O)N3CC(c4cccc(F)c4)C3)no2)cc1OC [Compound 236] , is the recorded pIC50 at or above 6?
Result :: -1

Query :: Hi team, for O=C(c1cnn(Cc2ccncc2)c1)c1cc(-c2ccccc2)on1 [Compound 138] , is the recorded pIC50 at or above 6?
Result :: -1

Query :: Hi team, for C[S+]([O-])CC(c1ccccc1)n1cc(NC(=O)c2cc(-c3ccccc3)on2)cn1 (centres unmarked) [Compound 78] , is the recorded pIC50 at or above 6?
Result :: -1

Query :: Hi team, for Cn1cccc(-c2cc(C(=O)Nc3cnn(Cc4cccc(F)c4)c3)no2)c1=O [Compound 89] , is the recorded pIC50 at or above 6?
Result :: -1

Query :: Hi team, for CC(C)c1cc(C(=O)Nc2cnn(Cc3cccc(F)c3)c2)no1 [Compound 60] , is the recorded pIC50 at or above 6?
Result :: 1

Query :: Hi team, for O=C(c1cc(-c2ccncc2)on1)N1CCC(c2ccccc2)CC1 [Compound 313, trifluoroacetic acid] , is the recorded pIC50 at or above 6?
Result :: 1
